The measured values listed here are drawn from patent US20160046618A1.

# studySystem: human recombinant BACE2 (Homo sapiens (Human), UniProt Q9Y5Z0)
# Sequence (Q9Y5Z0 63-518): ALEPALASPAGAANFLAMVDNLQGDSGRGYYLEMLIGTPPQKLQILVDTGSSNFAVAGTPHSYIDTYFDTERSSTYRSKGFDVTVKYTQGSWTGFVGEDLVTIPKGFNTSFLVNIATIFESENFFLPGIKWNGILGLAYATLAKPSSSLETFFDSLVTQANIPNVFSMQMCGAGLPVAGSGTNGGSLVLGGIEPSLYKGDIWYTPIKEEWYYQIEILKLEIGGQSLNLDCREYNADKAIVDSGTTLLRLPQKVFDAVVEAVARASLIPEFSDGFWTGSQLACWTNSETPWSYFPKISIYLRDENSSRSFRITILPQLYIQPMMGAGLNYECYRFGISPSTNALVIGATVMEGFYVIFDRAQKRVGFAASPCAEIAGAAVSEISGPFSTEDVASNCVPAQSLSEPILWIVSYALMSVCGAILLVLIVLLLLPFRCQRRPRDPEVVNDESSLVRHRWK
# testName: In vitro enzymatic BACE2 FRET assay
# Assay type: biochemical
# measurementContext: BACE2 FRET enzyme assay; read-out: IC50 IP (μM) BACE2 enzyme
measuredQuantity: IC50 (µM)

Some solved entries appear below for comparison.
* C[C@]1(c2cc(Nc3ncnc4cc(C#N)cnc34)cc(F)c2F)N=C(N)S[C@@]2(CO)C[C@H]21 | 0.014
* NC1=N[C@](CF)(c2cc(NC(=O)c3ccc(Cl)cn3)cc(F)c2F)[C@@H]2C[C@@H]2S1 | 0.00154
* NC1=N[C@](CF)(c2cc(Nc3nncc4cc(Br)cnc34)ccc2F)C2C[C@@H]2S1 (stereo in doubt) | 0.00616
* N#Cc1cnc2c(Nc3cc(F)c(F)c([C@@]4(CF)N=C(N)S[C@]5(CO)C[C@@H]54)c3)nccc2c1 | 0.0235
* C[C@]1(c2cc(Nc3ncnc4cc(C#N)cnc34)cc(F)c2F)N=C(N)S[C@H]2C[C@H]21 | 0.0562
* COC[C@]12C[C@H]1[C@@](C)(c1cc(Nc3ncnc4cc(Cl)cnc34)cc(F)c1F)N=C(N)S2 | 0.00363
* COC[C@]12C[C@H]1[C@@](C)(c1cc(Nc3ncnc4cc(OC)cnc34)cc(F)c1F)N=C(N)S2 | 0.0836
* C[C@]1(c2cc(NC(=O)c3ccc(Cl)cn3)ccc2F)N=C(N)S[C@@H]2[C@H]1C2(F)F | 0.00302

a: C#CCOc1cnc(C(=O)Nc2cc(F)c(F)c([C@@]3(CF)N=C(N)S[C@H]4C[C@H]43)c2)cn1
b: N#Cc1cnc2c(Nc3ccc(F)c([C@@]4(CF)N=C(N)S[C@@]5(CO)C[C@H]54)c3)ncnc2c1
Lab note: record which item had the higher IC50, a or b . Returns: label corresponding to the selected item.
a
(a: 0.0394 µM, b: 0.0251 µM)

* * *

# studySystem: human recombinant BACE2 (Homo sapiens (Human))
# testName: In vitro enzymatic BACE2 FRET assay
# Type: biochemical
# measurementContext: read-out: IC50 IP (μM) BACE2 enzyme
measuredQuantity: IC50 (µM)

* CC#CCOc1cnc2c(Nc3ccc(F)c([C@@]4(CF)N=C(N)S[C@@]5(CF)C[C@H]54)c3)nccc2n1 | 0.0123
* COC[C@]12C[C@H]1[C@@](C)(c1cc(NC(=O)c3ncc(OCc4ncco4)cc3C)cc(F)c1F)N=C(N)S2 | 0.211

a: C#CCOc1cnc(C(=O)Nc2ccc(F)c([C@@]3(C)N=C(N)S[C@@]4([C@@H](O)C(F)(F)F)C[C@H]43)c2)cn1
b: CNC(=O)[C@]12C[C@H]1[C@@](C)(c1cc(NC(=O)c3ccc(OCC(F)(F)F)cn3)cc(F)c1F)N=C(N)S2
c: C#CCOc1cnc2c(Nc3cnc(OC)c([C@@]4(C)N=C(N)S[C@@]5(CF)C[C@H]54)c3)ncnc2c1
d: C#CCOc1cnc(C(=O)Nc2ccc(F)c([C@@]3(C)N=C(N)S[C@@]4(C(=O)NC)C[C@H]43)c2)cn1
e: COC[C@]12C[C@H]1[C@@](C)(c1cc(NC(=O)c3cnc(Cl)cn3)cc(F)c1F)N=C(N)S2
With regard to IC50, arrange the entries in ascending order, please. Could you list the labels in the order requested?
e, d, a, b, c

* * *

# studySystem: Recombinant Cat D (Homo sapiens (Human), UniProt P07339)
# Sequence (P07339 65-412): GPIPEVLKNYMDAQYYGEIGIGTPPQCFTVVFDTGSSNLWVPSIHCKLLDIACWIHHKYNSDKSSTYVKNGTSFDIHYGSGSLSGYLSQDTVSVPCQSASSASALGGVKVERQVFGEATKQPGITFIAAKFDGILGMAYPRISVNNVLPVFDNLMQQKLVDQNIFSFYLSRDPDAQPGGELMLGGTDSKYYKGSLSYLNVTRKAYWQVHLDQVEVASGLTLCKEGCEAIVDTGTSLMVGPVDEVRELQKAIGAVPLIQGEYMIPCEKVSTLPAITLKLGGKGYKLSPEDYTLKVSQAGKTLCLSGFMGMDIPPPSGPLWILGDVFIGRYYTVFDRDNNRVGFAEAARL
# testName: In vitro enzymatic Cathepsin D (Cat D) FRET assay
# Assay type: biochemical
# measurementContext: read-out: IC50 IP (μM) CatD
measuredQuantity: IC50 (µM)

Some solved entries appear below for comparison.
• C#CCOc1cnc2c(Nc3ccc(F)c([C@@]4(CF)N=C(N)S[C@@]5(c6ocnc6C)C[C@@H]45)c3)ncnc2c1 = 485
• C#CCOc1cnc2c(Nc3cc(F)c(F)c([C@@]4(C)N=C(N)S[C@@]5(COC)C[C@H]54)c3)nccc2c1 = 1520
• C[C@]1(c2cc(Nc3ncnc4cc(OCc5ncco5)cnc34)cc(F)c2F)N=C(N)S[C@@]2(C(F)F)C[C@@H]12 = 118

A: CC#C[C@]12C[C@H]1[C@@](CF)(c1cc(Nc3nccc4nc(OCc5ncco5)cnc34)ccc1F)N=C(N)S2
B: [2H]C([2H])([2H])OC[C@]12C[C@H]1[C@@](C)(c1cc(Nc3nccc4nc(OCC#C)cnc34)cnc1F)N=C(N)S2
C: COC[C@]12C[C@H]1[C@@](C)(c1cc(Nc3nccc4cc(C#N)cnc34)cnc1F)N=C(N)S2
Hello, I need these entries ordered by IC50, highest reading first. Thanks! Could you list the labels in the order requested?
C, B, A
(C: 1910 µM, B: 791 µM, A: 354 µM)

P: C[C@]1(c2cc(Nc3nccc4nc(OCCCF)cnc34)cc(F)c2F)N=C(N)S[C@@]2(C(F)F)C[C@@H]12
Q: COC[C@]12C[C@H]1[C@@](C)(c1cc(NC(=O)c3cnc(OCCCF)cn3)cc(F)c1F)N=C(N)S2
// compare: P vs Q , metric IC50, want the smaller Returns: label corresponding to the selected item.
P

a: CON(C)C(=O)[C@]12C[C@H]1[C@@](C)(c1cc(Nc3ncnc4cc(Cl)cnc34)cc(F)c1F)N=C(N)S2
b: C#CCOc1cnc2c(Nc3ccc(F)c([C@@]4(CF)N=C(N)S[C@@]5(Cn6cc(C)nn6)C[C@H]54)c3)nccc2n1
Lab note: record which item had the higher IC50, a or b . Returns: label corresponding to the selected item.
b

I: COC[C@]12C[C@H]1[C@@](C)(c1cc(NC(=O)c3ncc(OCc4ncco4)nc3C)cc(F)c1F)N=C(N)S2
II: Cc1cc(OCC(F)(F)F)cnc1C(=O)Nc1cc(F)c(F)c([C@@]2(C)N=C(N)S[C@@]3(CF)C[C@H]32)c1
III: C[C@]1(c2cc(NC(=O)c3cnc(OCC(F)(F)F)cn3)ccc2F)N=C(N)S[C@@]2(C(=O)NCC(F)(F)F)C[C@H]21
IV: C[C@]1(c2cc(Nc3ncnc4cc(OCc5ncco5)cnc34)ccc2F)N=C(N)S[C@]2(CO)[C@H]1C2(F)F
Hello, I need these entries ordered by IC50, highest reading first. Thanks! Could you list the labels in the order requested?
II, I, IV, III

1: Cc1nc(OCc2ncco2)cnc1C(=O)Nc1ccc(F)c([C@@]2(C)N=C(N)S[C@@]3(CF)C[C@H]32)c1
2: C#CCOc1cnc2c(Nc3ccc(F)c([C@@]4(CF)N=C(N)S[C@@]5(/C=C/C(=O)N(C)C)C[C@H]54)c3)nccc2n1
3: CC(C)[C@@H](C)NC(=O)[C@]12C[C@H]1[C@@](C)(c1cc(NC(=O)c3cnc(OCC(F)(F)F)cn3)ccc1F)N=C(N)S2
4: CC(=O)[C@]12C[C@H]1[C@@](C)(c1cc(NC(=O)c3ccc(Cl)cn3)cc(F)c1F)N=C(N)S2
5: C#CCOc1cnc(C(=O)Nc2ccc(F)c([C@@]3(C)N=C(N)S[C@@]4(C(=O)NC5CC5)C[C@H]43)c2)cn1
Hello, I need these entries ordered by IC50, highest reading first. Thanks! Could you list the labels in the order requested?
1, 4, 2, 5, 3

1: C#CCOc1cnc(C(=O)Nc2ccc(F)c([C@@]3(C)N=C(N)S[C@@]4(C(F)F)C[C@@H]34)c2)c(C)c1
2: C#CCOc1cnc2c(Nc3ccc(F)c([C@@]4(CF)N=C(N)S[C@@]5(COC)C[C@H]54)c3)ncnc2c1
3: C#CCOc1cnc2c(Nc3cc(F)c(F)c([C@@]4(C)N=C(N)S[C@@]5(C(F)F)C[C@@H]45)c3)nccc2n1
With regard to IC50, arrange the entries in ascending order, please. Could you list the labels in the order requested?
3, 1, 2
(3: 27 µM, 1: 496 µM, 2: 1090 µM)

A: COC[C@]12C[C@H]1[C@@](C)(c1cc(Nc3nccc4cc(OCc5ncc(Cl)s5)cnc34)cc(F)c1F)N=C(N)S2
B: C[C@]1(c2cc(NC(=O)c3cnc(OCC(F)(F)F)cn3)ccc2F)N=C(N)S[C@@]2(C(=O)NCC(F)F)C[C@H]21
Lab note: record which item had the higher IC50, A or B . Returns: label corresponding to the selected item.
A
(A: 1650 µM, B: 180 µM)

* * *

# studySystem: human recombinant BACE1 (Homo sapiens (Human), UniProt P56817)
# Sequence (P56817 46-501): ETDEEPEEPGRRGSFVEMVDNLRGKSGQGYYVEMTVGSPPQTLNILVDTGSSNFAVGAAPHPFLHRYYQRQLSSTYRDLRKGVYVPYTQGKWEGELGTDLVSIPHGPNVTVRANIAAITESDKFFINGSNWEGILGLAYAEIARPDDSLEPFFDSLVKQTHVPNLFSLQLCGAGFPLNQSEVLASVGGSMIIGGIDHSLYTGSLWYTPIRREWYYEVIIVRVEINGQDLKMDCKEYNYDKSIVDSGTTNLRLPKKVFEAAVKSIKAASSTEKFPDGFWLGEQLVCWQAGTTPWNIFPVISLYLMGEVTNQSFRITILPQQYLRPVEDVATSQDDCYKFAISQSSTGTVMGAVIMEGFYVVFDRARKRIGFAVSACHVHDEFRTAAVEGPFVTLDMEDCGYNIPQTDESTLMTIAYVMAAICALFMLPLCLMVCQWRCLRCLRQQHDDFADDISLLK
# testName: In vitro enzymatic BACE1 FRET assay
# Format: biochemical
# measurementContext: read-out: IC50 IP (μM) BACE1 enzyme
measuredQuantity: IC50 (nM)

I: C#CCOc1cnc(C(=O)Nc2ccc(F)c([C@@]3(C)N=C(N)S[C@@]4(C(=O)N5CCCC5)C[C@H]43)c2)cn1
II: Cc1nc(OCC(F)(F)F)cnc1C(=O)Nc1cc(F)c(F)c([C@@]2(C)N=C(N)S[C@@]3(CF)C[C@H]32)c1
// compare: I vs II , metric IC50, want the smaller Returns: label corresponding to the selected item.
I

A: COC[C@]12C[C@H]1[C@@](C)(c1cc(Nc3nccc4cc(OCc5ncon5)cnc34)cc(F)c1F)N=C(N)S2
B: C#CCOc1cnc(C(=O)Nc2ccc(F)c([C@@]3(C)N=C(N)S[C@@]4(C(=O)N5CCOCC5)C[C@H]43)c2)cn1
C: COC[C@H](C)Oc1cnc(C(=O)Nc2ccc(F)c([C@@]3(C)N=C(N)S[C@@]4(C(=O)NC5CC5)C[C@H]43)c2)cn1
D: C#CCOc1cnc2c(Nc3cc(C(=O)OC)c(F)c([C@@]4(C)N=C(N)S[C@@]5(CO)C[C@H]54)c3)nccc2n1
Hello, I need these entries ordered by IC50, highest reading first. Thanks! Could you list the labels in the order requested?
D, A, B, C
(D: 67.8 nM, A: 15.7 nM, B: 0.384 nM, C: 0.059 nM)
